Assay: ACEA_ER_AUC_viability: ACEA Biosciences xCELLigence Real-Time Cell Analysis on Estrogen Receptor Agonism for Viability (AID 2283782);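 note: continuous compound exposure with impedance area under curve over 80 h; hit means loss of impedance signal meaning reduced cell growth or viability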
Inconclusive results are not listed. Calls of active or inactive are those of the source. Rule for the calls: active = hit-call score of the fitted dose curve at least 0.9, where 1 is the maximum; inconclusive = response in the unintended direction; inactive = score below 0.9.
Observation Type: AC50

Some solved cases for reference:
>>> df
                                   compound    value_reported
0        CC(C)(N=C=O)c1cccc(C(C)(C)N=C=O)c1  33.1 µM (active)
1  CC(C)=CCCC(C)CC(=O)O (centres undefined)          inactive
2       CCCCCCC(CO)CCCC (centres undefined)  76.9 µM (active)
3                        O=C(CS)OCCOC(=O)CS  82.2 µM (active)
4                     O=C1CCCC=CCCCCCCCCCC1  84.1 µM (active)
5  CCCCC(CC)COC(=O)c1ccc(O)cc1 (centres undefined)  22.4 µM (active)
6                                C=C(C)CNCC  25.7 µM (active)
7                   CCCCCCCCCCCCCCN(CCO)CCO   7.2 µM (active)

Each of the following entries comes with a recorded value; kindly state AC50 for each.
1. CCCOCCO
2. ClC(c1ccccc1)(c1ccccc1)c1ccccc1
3. C=C(C)C(=O)OCCOC1CC2CC1C1C=CCC21 (centres undefined)

Data returned:
1. inactive
2. 82.6 µM (active)
3. 48.6 µM (active)

Each of the following entries comes with a recorded value; kindly state AC50 for each.
1. c1ccc(CCc2ccccc2)cc1
2. CCOCCOCCOCC
3. CCN(CC)C(=O)N(CC)CC
4. CCCCCC(=O)CC
5. OCC(O)c1ccccc1 (centres undefined)
6. CC1(C)COCN1
7. CC/C=C\CCOC(=O)CC

Data returned:
1: inactive; 2: inactive; 3: inactive; 4: inactive; 5: inactive; 6: 32.1 µM (active); 7: inactive

Each of the following entries comes with a recorded value; kindly state AC50 for each.
1. COc1ccc(CCC(C)=O)cc1
2. COc1cccc(OC)c1O

Data returned:
["inactive", "inactive"]

Each of the following entries comes with a recorded value; kindly state AC50 for each.
1. C[C@H]1C[C@@H](O)CC(C)(C)C1
2. C=C(C)[C@H]1CC=C(C)C(=O)C1
3. OCCCCC(O)CO (centres undefined)
4. CCCCC1CCC(O)CC1 (centres undefined)
5. O=[N+]([O-])c1ccc(O)cc1C(F)(F)F
6. CCOc1ccccc1O
7. COCCOCCOCCO
8. CC(=O)O[C@@H]1CC2CCC1(C)C2(C)C (some centres undefined)

Data returned:
1. 50 µM (active)
2. inactive
3. inactive
4. inactive
5. 86.6 µM (active)
6. inactive
7. inactive
8. inactive

* * *

Biological target: Peroxisome proliferator-activated receptor gamma (Homo sapiens)
Assay: ATG_PPARg_TRANS: Attagene TRANS-FACTORIAL HepG2 Assay for human Peroxisome Proliferator-activated Receptor-gamma (PPARg) (AID 2283007)
Results filed as inconclusive are left out. The source made the active and inactive calls. How the source made its calls: active means hit-call score of the fitted dose curve at least 0.9, where 1 is the maximum; inconclusive means response in the unintended direction; inactive means score below 0.9.
Lab note: assign the record to one of active, inactive

Worked set:
In [3]: df
Out[3]:
                                   compound  assigned_category
0                        NCCNc1cccc2ccccc12             active
1                     CC(=O)CC(=O)Nc1ccccc1           inactive
2         NCC1CCCC(CN)C1 (stereo not drawn)           inactive
3                 CC(C)CCCCCCCCCCCCCCC(=O)O             active
4                  CC(C)(C)c1ccc(C(=O)O)cc1           inactive
5  CCN(CCC#N)c1ccc(N=Nc2ccc([N+](=O)[O-])cc2)cc1           inactive
6                     Nc1ccccc1[N+](=O)[O-]           inactive
7          c1ccc(CN(Cc2ccccc2)Cc2ccccc2)cc1           inactive

Data request: Outcome? "O=C(O)c1ccc(O)cc1"
Data returned: inactive

Data request: Outcome? "IC(I)I"
Data returned: inactive

Data request: Outcome? "CCCCCCOCCOCCO"
Data returned: inactive

Data request: Outcome? "CCCCCC(C)=O"
Data returned: inactive

Data request: Outcome? "C[C@@H]1CCN(C(=O)[C@H](CCCN=C(N)N)NS(=O)(=O)c2cccc3c2NC[C@H](C)C3)[C@@H](C(=O)O)C1"
Data returned: inactive

Data request: Outcome? "COc1ccc(N)c([N+](=O)[O-])c1"
Data returned: inactive
